pIC50: −log10 of the molar value.
For Xanthine dehydrogenase/oxidase (Bos taurus), measured pIC50 is reported for the entries below.
Property name: pIC50

- Chemical string: "Oc1cc(O)n2ncc(-c3ccc(Cl)cc3)c2n1"
  Property name: "pIC50"
  Measured result: 7.37

A: Oc1cc(O)n2ncc(-c3cccnc3)c2n1
B: Oc1cc(O)n2nccc2n1
C: Cc1ccc(-c2cnn3c(O)cc(O)nc23)cc1
D: Oc1cc(O)n2ncc(Br)c2n1
Number of molecules to sort: 4. Sort criterion: pIC50, ascending. The labels, placed in the requested order, form the answer.
B, D, C, A

* * *

Experiment: Dissociation constant, pKa of the compound
Property name: pKa

Solved cases below.
- Chemical string: "Oc1ncnc2[nH]ncc12"
  pKa: 9
- Chemical string: "Oc1cc(O)n2ncc(-c3ccccc3)c2n1"
  pKa: 3.8
- Chemical string: "Oc1cc(O)n2nccc2n1"
  pKa: 3.7
- Chemical string: "O=c1[nH]cnc2nc[nH]c12"
  pKa: 8.7

1: O=c1[nH]c(=O)c2[nH]cnc2[nH]1
2: Oc1cc(O)n2ncc(-c3ccc(Br)cc3)c2n1
Which item exceeds the other in pKa, 1 or 2 ? Select an item and report its label.
1
